Listed next: entries and their corresponding Time.
Test system: Rattus norvegicus
method-description: Analgesic activity in albino Wistar rat assessed as reaction time required for tail flicking at 25 mg/kg, po after 90 mins by tail-flick method (reference value: 3.87 +/- 0.355 sec)
Type: functional
Hi! Could you send only the number? It should be in s, unit omitted.

Example cases with answers are listed next.
compound	test-system	measured-property	measured-value
O=c1cc(COc2ccc(-c3cc(-c4ccccc4)nc(O)n3)cc2)c2c(ccc3ccccc32)o1	Rattus norvegicus	Time	8.87
Cc1c(N(C)CS(=O)(=O)[O-])c(=O)n(-c2ccccc2)n1C.[Na+] [DIPYRONE SODIUM]	Rattus norvegicus	Time	9.02
Nc1nc(-c2ccccc2)cc(-c2ccc(OCc3cc(=O)oc4ccc(Cl)cc34)cc2)n1	Rattus norvegicus	Time	7.1

Could you now look at the following compound, please?
[Q] Recorded Time of `Cc1ccc2c(COc3ccc(-c4cc(-c5ccccc5)nc(S)n4)cc3)cc(=O)oc2c1` , please.
[A] 7.5

----------
System: Rattus norvegicus
method-description: Analgesic activity in albino Wistar rat assessed as reaction time required for tail flicking at 25 mg/kg, po after 90 mins by tail-flick method (reference value: 3.87 +/- 0.355 sec)
Type: functional
Assign labels as follows, please: MET for Time below 7 s; NOT MET for Time equal to or exceeding 7 s.

Observe how each entry below is paired with its result.
compound-structure	group-label
Nc1nc(-c2ccccc2)cc(-c2ccc(OCc3cc(=O)oc4c3ccc3ccccc34)cc2)n1	MET
Cc1ccc2oc(=O)cc(COc3ccc(-c4cc(-c5ccccc5)nc(S)n4)cc3)c2c1	NOT MET
Nc1nc(-c2ccccc2)cc(-c2ccc(OCc3cc(=O)oc4ccc5ccccc5c34)cc2)n1	NOT MET
O=c1cc(COc2ccc(-c3cc(-c4ccccc4)nc(S)n3)cc2)c2ccc3ccccc3c2o1	MET
O=c1cc(COc2ccc(-c3cc(-c4ccccc4)nc(O)n3)cc2)c2ccc3ccccc3c2o1	NOT MET

Shift focus to the following entry.
[Q] Dear colleague, could you confirm whether Time of `O=c1cc(COc2ccc(-c3cc(-c4ccccc4)nc(S)n3)cc2)c2cc(Cl)ccc2o1` falls below 7 s? Thanks.
[A] NOT MET

meta.source: ChEMBL document CHEMBL1165909
